koff values for the compounds below.
# Test: Binding affinity to recombinant PRC2 complex (unknown origin) assessed as dissociation rate constant incubated for 90 seconds by surface plasmon resonance assay
# Design: species or system Homo sapiens
Endpoint: koff (s⁻¹)

Cc1cc(C)c(CNC(=O)c2cc(-c3ccc(NC(=O)CCCCCCC(=O)NO)cc3)cc3c2cnn3C(C)C)c(=O)[nH]1 ... 0.11
Cc1cc(C)c(CNC(=O)c2cc(-c3ccc(N4CCN(C(=O)CCCCCCC(=O)NO)CC4)nc3)cc3c2cnn3C(C)C)c(=O)[nH]1 ... 0.023
CC[C@@H](C)n1cc(C)c2c(C(=O)NCc3c(C)cc(C)[nH]c3=O)cc(-c3ccc(N4CCN(CCCCCCCCC(=O)NO)CC4)nc3)cc21 ... 0.0078
Cc1cc(C)c(CNC(=O)c2cc(-c3ccc(N4CCN(C(=O)OC(C)(C)C)CC4)nc3)cc(NCCCCCCCC(=O)NO)c2C)c(=O)[nH]1 ... 0.099
Cc1cc(C)c(CNC(=O)c2cc(-c3ccc(N4CCN(C(=O)OC(C)(C)C)CC4)nc3)cc(NCCCCC(=O)NO)c2C)c(=O)[nH]1 ... 0.049
CCN(c1cc(-c2ccc(N3CCN(c4ncc(C(=O)NO)cn4)CC3)nc2)cc(C(=O)NCc2c(C)cc(C)[nH]c2=O)c1C)C1CCOCC1 ... 0.025

###

# Target Desc: UniProt Q9UQL6
# Sequence (Q9UQL6 whole entry, the tested form may be a part): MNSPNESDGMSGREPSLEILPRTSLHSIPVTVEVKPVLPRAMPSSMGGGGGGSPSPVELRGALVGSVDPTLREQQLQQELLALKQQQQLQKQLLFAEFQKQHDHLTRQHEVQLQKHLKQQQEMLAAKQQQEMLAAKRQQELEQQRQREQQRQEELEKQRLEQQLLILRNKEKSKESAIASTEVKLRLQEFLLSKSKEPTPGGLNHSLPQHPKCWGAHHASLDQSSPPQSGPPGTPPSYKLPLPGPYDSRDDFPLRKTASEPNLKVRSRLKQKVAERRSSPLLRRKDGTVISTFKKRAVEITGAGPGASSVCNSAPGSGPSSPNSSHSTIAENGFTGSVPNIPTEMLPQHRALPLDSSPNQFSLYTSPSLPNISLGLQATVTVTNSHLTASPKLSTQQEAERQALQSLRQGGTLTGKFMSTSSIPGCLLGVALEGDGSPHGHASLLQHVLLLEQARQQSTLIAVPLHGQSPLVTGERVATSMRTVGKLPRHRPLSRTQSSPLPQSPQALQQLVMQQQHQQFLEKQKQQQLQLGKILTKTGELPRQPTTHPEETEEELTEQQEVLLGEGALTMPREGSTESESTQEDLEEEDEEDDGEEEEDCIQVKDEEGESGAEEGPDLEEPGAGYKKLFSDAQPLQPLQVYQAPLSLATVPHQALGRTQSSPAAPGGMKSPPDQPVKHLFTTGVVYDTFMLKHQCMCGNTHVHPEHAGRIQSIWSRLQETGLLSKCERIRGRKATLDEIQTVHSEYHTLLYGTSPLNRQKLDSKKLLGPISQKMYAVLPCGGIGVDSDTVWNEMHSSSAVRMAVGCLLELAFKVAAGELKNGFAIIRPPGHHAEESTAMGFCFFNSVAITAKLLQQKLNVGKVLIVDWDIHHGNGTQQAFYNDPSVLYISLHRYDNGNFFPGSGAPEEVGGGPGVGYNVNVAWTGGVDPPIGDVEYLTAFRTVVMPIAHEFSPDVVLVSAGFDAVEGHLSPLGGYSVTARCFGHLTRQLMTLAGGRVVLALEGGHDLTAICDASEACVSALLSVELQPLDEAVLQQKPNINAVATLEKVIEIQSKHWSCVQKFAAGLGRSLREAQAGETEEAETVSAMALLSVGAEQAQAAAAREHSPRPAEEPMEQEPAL
# Test: Inhibition of recombinant C-terminal his fusion-tagged human HDAC5 (656 to 1122 residues) expressed in baculovirus expression system using trifluoroacetyl lysine as substrate incubated for 2 hrs by Multimode microplate reader analysis
pIC50: −log10 of the molar value.
Endpoint: pIC50

Cc1cc(C)c(CNC(=O)c2cc(-c3ccc(N4CCN(c5ncc(C(=O)NO)cn5)CC4)nc3)cc3c2cnn3C(C)C)c(=O)[nH]1 ... 5.54

###

# Test system: SU-DHL10
# Test: cells
# Reported Conditions: Homo sapiens, SU-DHL10, 72 h
Endpoint: IC50 (µM)

Cc1cc(C)c(CNC(=O)c2cc(-c3ccc(NC(=O)CCCCCCC(=O)NO)cc3)cc3c2cnn3C(C)C)c(=O)[nH]1 ... 0.84
Cc1cc(C)c(CNC(=O)c2cc(-c3ccc(N4CCN(Cc5ccc(C(=O)NO)o5)CC4)nc3)cc3c2cnn3C(C)C)c(=O)[nH]1 ... 15.2
C=C(CCCCCNc1cc(-c2ccc(N3CCN(C(=O)OC(C)(C)C)CC3)nc2)cc(C(=O)NCc2c(C)cc(C)[nH]c2=O)c1C)NO ... 12.9
Cc1cc(C)c(CNC(=O)c2cc(-c3ccc(N4CCN(C(=O)OC(C)(C)C)CC4)nc3)cc(NCCCCC(=O)NO)c2C)c(=O)[nH]1 ... 12.1
Cc1cc(C)c(CNC(=O)c2cc(-c3ccc(N4CCN(C(=O)CCCCCCC(=O)NO)CC4)nc3)cc3c2cnn3C(C)C)c(=O)[nH]1 ... 1.73
Cc1cc(C)c(CNC(=O)c2cc(-c3ccc(N4CCN(C(=O)OC(C)(C)C)CC4)nc3)cc(NCCCCCCC(=O)NO)c2C)c(=O)[nH]1 ... 4.04

###

# Test: Binding affinity to recombinant PRC2 complex (unknown origin) incubated for 90 seconds by surface plasmon resonance assay
# Parameters: species or system Homo sapiens
pKd: −log10 of the molar value.
pKd values for the molecules below.
Endpoint: pKd

Cc1cc(C)c(CNC(=O)c2cc(-c3ccc(N4CCN(C(=O)OC(C)(C)C)CC4)nc3)cc(NCCCCC(=O)NO)c2C)c(=O)[nH]1 ... 6.62
C=C(CCCCCNc1cc(-c2ccc(N3CCN(C(=O)OC(C)(C)C)CC3)nc2)cc(C(=O)NCc2c(C)cc(C)[nH]c2=O)c1C)NO ... 6.55
CCN(c1cc(-c2ccc(N3CCN(c4ncc(C(=O)NO)cn4)CC3)nc2)cc(C(=O)NCc2c(C)cc(C)[nH]c2=O)c1C)C1CCOCC1 ... 6.54
Cc1cc(C)c(CNC(=O)c2cc(-c3ccc(N4CCN(C(=O)CCCCCCC(=O)NO)CC4)nc3)cc3c2cnn3C(C)C)c(=O)[nH]1 ... 7.08
